target: full length active recombinant SYK enzyme (Homo sapiens); construct: full length active recombinant SYK enzyme (Millipore, Calif.); experiment: Inhibition of Syk tyrosine phosphorylation activity (LANCE TR-FRET kinase assay); conditions: 1 nM SYK, 550 nM substrate, 100 μM ATP, 1 hour room temperature

{"Compound": "NC(=O)c1cnc(N[C@H]2CNC(=O)C2)nc1Nc1cccc(-n2nccn2)c1", "System name": "full length active recombinant SYK enzyme (Homo sapiens)", "IC50": "100 to 1000 nM"}
{"Compound": "CCO[C@@H]1CCCC[C@H]1Nc1ncc(C(N)=O)c(Nc2cccc(-n3nccn3)c2)n1", "System name": "full length active recombinant SYK enzyme (Homo sapiens)", "IC50": "100 to 1000 nM"}
{"Compound": "CC[C@H](Nc1ncc(C(N)=O)c(Nc2cccc(C)c2)n1)C1(N)CC1", "System name": "full length active recombinant SYK enzyme (Homo sapiens)", "IC50": "100 to 1000 nM"}
{"Compound": "NC(=O)c1cnc(N[C@@H]2CCCC[C@@H]2NC=O)nc1Nc1cccc(-n2nccn2)c1", "System name": "full length active recombinant SYK enzyme (Homo sapiens)", "IC50": "100 to 1000 nM"}
{"Compound": "NC(=O)c1cnc(N[C@@H]2CCC[C@@H](F)[C@@H]2N)nc1Nc1cccc(-n2nccn2)c1 (racemic)", "System name": "full length active recombinant SYK enzyme (Homo sapiens)", "IC50": "10 to 100 nM"}
{"Compound": "Cc1cccc(Nc2nc(N[C@H]3CN[C@H](C(=O)N(C)C)C3)ncc2C(N)=O)c1", "System name": "full length active recombinant SYK enzyme (Homo sapiens)", "IC50": "> 1000 nM"}
{"Compound": "COC(=O)C(C)(C)c1cccc(Nc2nc(N[C@@H]3CCCC[C@@H]3N)ncc2C(N)=O)c1", "System name": "full length active recombinant SYK enzyme (Homo sapiens)", "IC50": "100 to 1000 nM"}
{"Compound": "Cn1ccc2c(Nc3nc(NCC4CC4)ncc3C(N)=O)cccc21", "System name": "full length active recombinant SYK enzyme (Homo sapiens)", "IC50": "100 to 1000 nM"}
{"Compound": "CN1CCc2c(Nc3nc(NC[C@@H](N)CC(F)F)ncc3C(N)=O)cccc21", "System name": "full length active recombinant SYK enzyme (Homo sapiens)", "IC50": "10 to 100 nM"}
{"Compound": "CNC(=O)[C@@H]1C[C@@H](Nc2ncc(C(N)=O)c(Nc3cccc(C)c3)n2)CN1", "System name": "full length active recombinant SYK enzyme (Homo sapiens)", "IC50": "> 1000 nM"}
{"Compound": "CC[C@@H](Nc1ncc(C(N)=O)c(Nc2ccc(-c3cnns3)cc2)n1)C(N)=O", "System name": "full length active recombinant SYK enzyme (Homo sapiens)", "IC50": "10 to 100 nM"}
{"Compound": "CC(C)[C@@H](Nc1ncc(C(N)=O)c(Nc2ccc3ncccc3c2)n1)C(N)=O", "System name": "full length active recombinant SYK enzyme (Homo sapiens)", "IC50": "10 to 100 nM"}
{"Compound": "NC(=O)c1cnc(N[C@@H]2CCCC[C@@H]2N)nc1Nc1cncc(F)c1", "System name": "full length active recombinant SYK enzyme (Homo sapiens)", "IC50": "10 to 100 nM"}
{"Compound": "N#CCN[C@H]1CCCC[C@H]1Nc1ncc(C(N)=O)c(Nc2cccc(-n3nccn3)c2)n1", "System name": "full length active recombinant SYK enzyme (Homo sapiens)", "IC50": "100 to 1000 nM"}
{"Compound": "Cn1ccc2c(Nc3nc(N[C@@H]4CCCC[C@@H]4O)ncc3C(N)=O)cccc21", "System name": "full length active recombinant SYK enzyme (Homo sapiens)", "IC50": "100 to 1000 nM"}
{"Compound": "NC(=O)c1cnc(N[C@@H]2CCOC[C@@H]2N)nc1Nc1ccc(Cl)cc1", "System name": "full length active recombinant SYK enzyme (Homo sapiens)", "IC50": "10 to 100 nM"}
